Numbers sourced from PubChem BioAssay AID1159580.

Experiment: chemical genetic growth profiling, strain panel (AID 1159580);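 also: tested at 20 µM; growth read once vehicle control cultures reached saturation at 30 °C; lower values mean less growth of the strain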
Details: S. cerevisiae deletion strains, growth OD, locus YNL209W, strain ssb2
Screen size: about 5,500 compounds; about 2,000 (36%) were called active. About 18% were inconclusive and are not listed. Rule as the data show it: active = normalized growth mostly below about 0.91 (no sharp cut-off); inconclusive = no clear call, values can overlap the other calls; inactive = mostly above about 0.92. Some of the results follow.
Valid outcomes are listed here; reply with one: TRUE (active), FALSE (inactive)

Would you please look over these solved cases?
| Compound | Label |
| --- | --- |
| CC(=O)Nc1ccc(O)cc1 | FALSE |
| CCN(CC)CCNc1ccc(CO)c2sc3ccccc3c(=O)c12 | FALSE |
| COc1ccc(-c2cc(=O)c3cc(OC)ccc3o2)cc1 | FALSE |

Query string: Assay result, entry CN(C)CC/C=C1/c2ccccc2COc2ccccc21 — outcome?
Result string: FALSE

Query string: Test call for this compound, please: CNCCC=C1c2ccccc2CCc2ccccc21
Result string: FALSE

Query string: Hello, I am checking results. What call was entered for COc1ccc(-c2cc(=O)c3ccccc3o2)cc1OC ?
Result string: FALSE

Query string: Query: recorded result category for COc1ccc(-c2cc(=O)c3ccccc3o2)cc1 in this test
Result string: TRUE

Query string: Give the logged outcome of this assay for the following compound: O=C(O)c1cn(-c2ccc(F)cc2)c2cc(N3CCNCC3)c(F)cc2c1=O
Result string: FALSE

Query string: Which outcome did this test record for the compound CC(C)c1ccc2c(c1O)CC[C@H]1C3=C(CC[C@]21C)C(=O)OC3 ?
Result string: FALSE

Query string: Returns: the outcome recorded for COC(=O)C1=C(C)NC(C)=C(C(=O)OCC(C)C)C1c1ccccc1[N+](=O)[O-] (stereo not drawn) in this assay.
Result string: TRUE
